Entries and their measured protein stability index follow.
B1: ELF3 (parent)
chain: RLVYKFGKNSSGWKEEEVLQSRN

Variants of: B1
Experiment: protein stability index of a GFP-peptide fusion (GPS, HEK-293T) (PSI 1-6); higher = more stable;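 also: lentivirally expressed fusions sorted by FACS into six bins by GFP to DsRed ratio, PSI derived from sequencing read proportions per bin multiplied by bin number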
Conditions: c terminus: native
Just the number, please.

See these solved cases before continuing.
| variant.annotation | value.reported |
| --- | --- |
| K5P | 1.89 |
| V3T | 2.86 |
| Q20D | 3.28 |

Request: Entry R22M needs its protein stability index filled in; supply it.
Result: 2.72

Request: Entry Q20E needs its protein stability index filled in; supply it.
Result: 3.52

Request: Entry E16C needs its protein stability index filled in; supply it.
Result: 1.94

Request: Entry S10I needs its protein stability index filled in; supply it.
Result: 1.66

Request: Entry Y4M needs its protein stability index filled in; supply it.
Result: 2.55

Request: Entry S11C needs its protein stability index filled in; supply it.
Result: 1.84

Request: Entry G12Y needs its protein stability index filled in; supply it.
Result: 2.57

Request: Entry G12E needs its protein stability index filled in; supply it.
Result: 2.98

Request: Entry E17A needs its protein stability index filled in; supply it.
Result: 2.06

Request: Entry N23V needs its protein stability index filled in; supply it.
Result: 2.62

Request: Entry S21E needs its protein stability index filled in; supply it.
Result: 3.19

Request: Entry V18D needs its protein stability index filled in; supply it.
Result: 3.45
